target.of.assay: SRC Catalytic Domain+SH2+SH3 (Homo sapiens)
Sequence (P12931 84-523 limits assumed): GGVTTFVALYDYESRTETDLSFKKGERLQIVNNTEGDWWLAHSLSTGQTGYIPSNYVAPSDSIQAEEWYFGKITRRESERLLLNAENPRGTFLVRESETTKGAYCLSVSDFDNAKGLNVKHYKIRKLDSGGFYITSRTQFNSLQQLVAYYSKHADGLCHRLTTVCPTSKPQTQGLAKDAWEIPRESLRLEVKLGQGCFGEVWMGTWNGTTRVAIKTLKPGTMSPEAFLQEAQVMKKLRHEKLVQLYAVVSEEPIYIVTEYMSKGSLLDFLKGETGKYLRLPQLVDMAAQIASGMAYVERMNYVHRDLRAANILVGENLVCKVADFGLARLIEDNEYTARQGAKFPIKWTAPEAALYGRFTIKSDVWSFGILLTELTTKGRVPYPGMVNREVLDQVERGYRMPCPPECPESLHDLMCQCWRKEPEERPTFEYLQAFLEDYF
protocol: Differential Scanning Fluorimetry (DSF) Tm shift
Type: binding
condition.info: 2 µM protein, 10 µM inhibitor, average of 3 experiments, each in duplicate
Field: Melting temperature (Tm) shift. Provide a value for each of the compounds that follow.

For orientation, consider the following solved cases.
compound | Melting temperature (Tm) shift
COc1cc(Nc2ncc3ccn(-c4cccc(CCC#N)c4)c3n2)cc(OC)c1OC | 1.8 degrees Celcius
N#CC(c1ccnc(NCCc2cccnc2)n1)c1nc2ccccc2s1 (centres unmarked) | 0.1 degrees Celcius

Would you mind giving Melting temperature (Tm) shift for every compound in the list below?
1. COc1cc2nccc(Oc3ccc(NC(=S)NC(=O)c4ccccc4C)cc3)c2cc1OC
2. COc1cc2ncnc(Nc3ccc(NC(=O)c4ccccc4)cc3)c2cc1OC
3. CCN(CC)CCNC(=O)c1c(C)[nH]c(/C=C2\C(=O)Nc3ccc(Cl)cc32)c1C
4. Cc1ccc([N+](=O)[O-])cc1S(=O)(=O)N(C)N=Cc1cnc2ccc(Br)cn12.Cl.O.O

**A:**
["3.9 degrees Celcius", "0.4 degrees Celcius", "0.5 degrees Celcius", "0.9 degrees Celcius"]

For each of the compounds below, state Melting temperature (Tm) shift.
1. Nc1ncnc2c1c(I)cn2[C@@H]1O[C@H](CO)[C@@H](O)[C@H]1O
2. O=C(c1ccc(Nc2nccc(-c3cc4ccccc4s3)n2)cc1)N1CCC(N2CCCC2)CC1

**A:**
1. 0.1 degrees Celcius
2. 0.5 degrees Celcius
